- Test system: Non-small cell lung cancer cell lines
- Procedure Text: NCI anticancer screen, SRB assay, panel summary
- Assay type: cell-based, human
- Conditions: Homo sapiens; nine non-small cell lung cancer cell lines; exposure at least 48 hrs; read-out: GI50, range over the panel
Assay Readout: GI50

Consider the worked cases shown below.
Please supply the value of reported GI50 for the item COc1cc(/C=C/C(=O)c2cccc(-n3cc(-c4cc(OC)c(OC)c(OC)c4)[nH]c3=O)c2)cc(OC)c1OC [5d] 1050 to 14400 nM

Return reported GI50. Input molecule: COc1cc(/C=C/C(=O)c2cccc(-n3cc(-c4ccc(Cl)cc4)[nH]c3=O)c2)ccc1O [3f] 1260 to 9610 nM

Note GI50 for the molecule shown: O=C(/C=C/c1cccc(O)c1)c1cccc(-n2cc(-c3ccc(Cl)cc3)[nH]c2=O)c1 [4f] 1600 to 3550 nM

In the following, a different molecule is considered.
In one line, give reported GI50 of the entry COc1cc(/C=C/C(=O)c2cccc(-n3cc(-c4ccccc4)[nH]c3=O)c2)cc(OC)c1OC [5a] . 950 to 14600 nM

* * *

- Tested on: UO-31 (renal)
- Procedure Text: NCI anticancer screen, SRB assay, 48 h
- Type: cell-based, human
- Conditions: Homo sapiens, read-out: pGI50 (-log of molar concentration causing 50% inhibition of net cell growth) (converted)
Assay Readout: GI50 (nM)
Respond with the bare value in nM.

Some compounds with recorded GI50:
Answer with the recorded GI50 for the compound listed here: "COc1cc(/C=C/C(=O)c2cccc(-n3cc(-c4cc(OC)c(OC)c(OC)c4)[nH]c3=O)c2)cc(OC)c1OC" 955

Find the measured GI50 of "O=C(/C=C/c1cccc(O)c1)c1cccc(-n2cc(-c3ccc(Cl)cc3)[nH]c2=O)c1" and report it. 550

Write down GI50 measured for item O=C(/C=C/c1cccc(O)c1)c1cccc(-n2cc(-c3ccc4ccccc4c3)[nH]c2=O)c1 [12b] 1260

Assign GI50 to the following record: "COc1cc(/C=C/C(=O)c2cccc(-n3cc(-c4ccc(Cl)cc4)[nH]c3=O)c2)ccc1O" 1660

Give GI50 for the following compound: "COc1cc(/C=C/C(=O)c2cccc(-n3cc(-c4ccccc4)[nH]c3=O)c2)cc(OC)c1OC" 1510

Hello, please tell me recorded GI50 for this one: "COc1ccc(-c2cn(-c3cccc(C(=O)/C=C/c4ccc(O)c(OC)c4)c3)c(=O)[nH]2)cc1" 5250

Indicate the recorded GI50 value for this compound: "O=C(/C=C/c1cccc(O)c1)c1cccc(-n2cc(-c3ccccc3)[nH]c2=O)c1" 2140

Now, please, on to the next compound.
Quickly give me recorded GI50 for "COc1cc(/C=C/C(=O)c2cccc(-n3cc(-c4ccccc4)[nH]c3=O)c2)ccc1O" 2190

* * *

- System: PC-3 (prostate)
- Procedure Text: NCI anticancer screen, SRB assay, 48 h
- Format: cell-based, human
- Conditions: Homo sapiens; one prostate cancer cell line (PC-3); exposure at least 48 hrs; read-out: GI50
# GI50 per record follows
Field: numeric (µM). Do not append units.

Report its GI50 with PC-3 (prostate) as the test system: "COc1cc(/C=C/C(=O)c2cccc(-n3cc(-c4cc(OC)c(OC)c(OC)c4)[nH]c3=O)c2)cc(OC)c1OC" 2.63

Please report the measured GI50 for "COc1ccc(-c2cn(-c3cccc(C(=O)/C=C/c4ccc(O)c(OC)c4)c3)c(=O)[nH]2)cc1" tested on PC-3 (prostate). 3.05

Recall the reported GI50 of "COc1cc(/C=C/C(=O)c2cccc(-n3cc(-c4ccc(Cl)cc4)[nH]c3=O)c2)ccc1O" on PC-3 (prostate) and write it down. 1.95

Please tell me the measured GI50 for "COc1cc(/C=C/C(=O)c2cccc(-n3cc(-c4ccccc4)[nH]c3=O)c2)ccc1O" ; system: PC-3 (prostate). 2.52

* * *

Form field: GI50 (one value per entry).
- Test system: UACC-257 (melanoma)
- Procedure Text: NCI anticancer screen, SRB assay, 48 h
- Format: cell-based, human
- Conditions: Homo sapiens, read-out: pGI50 (-log of molar concentration causing 50% inhibition of net cell growth) (converted)
# unit: µM | format: bare number

Please report the measured GI50 for O=C(/C=C/c1cccc(O)c1)c1cccc(-n2cc(-c3ccc4ccccc4c3)[nH]c2=O)c1 [12b] 4.17

Tell us which GI50 value is on record for "COc1cc(/C=C/C(=O)c2cccc(-n3cc(-c4ccccc4)[nH]c3=O)c2)ccc1O" 6.76

Continuing:
Check the records and state GI50 for "COc1cc(/C=C/C(=O)c2cccc(-n3cc(-c4ccc(Cl)cc4)[nH]c3=O)c2)ccc1O" 8.71

Please list GI50 recorded for the molecule "COc1cc(/C=C/C(=O)c2cccc(-n3cc(-c4ccccc4)[nH]c3=O)c2)cc(OC)c1OC" 1.51

* * *

- Tested on: PC-3 (prostate)
- Procedure Text: NCI anticancer screen, SRB assay, 48 h
- Assay type: cell-based, human
- Conditions: Homo sapiens; one prostate cancer cell line (PC-3); exposure at least 48 hrs; read-out: GI50
Assay Readout: GI50
Please format your answer as a value with the unit trailing.

Please list GI50 recorded for the compound O=C(/C=C/c1cccc(O)c1)c1cccc(-n2cc(-c3ccc4ccccc4c3)[nH]c2=O)c1 [12b] 1.85 µM

Please supply the value of reported GI50 for the item "O=C(/C=C/c1cccc(O)c1)c1cccc(-n2cc(-c3ccccc3)[nH]c2=O)c1" 2.82 µM

Consider the record given below.
Name the recorded GI50 of the item "COc1cc(/C=C/C(=O)c2cccc(-n3cc(-c4ccccc4)[nH]c3=O)c2)cc(OC)c1OC" in your answer. 3.26 µM

* * *

- System: UACC-257 (melanoma)
- Procedure Text: NCI anticancer screen, SRB assay, 48 h
- Type: cell-based, human
- Conditions: Homo sapiens, 48 h exposure, SRB, read-out: GI50
Listing of recorded GI50 by entry.
Provide the measurement as a number trailed by its unit.

Below: 3 compounds and their reported GI50.
Give the value of GI50 reported for the following: "COc1ccc(-c2cn(-c3cccc(C(=O)/C=C/c4ccc(O)c(OC)c4)c3)c(=O)[nH]2)cc1" 13.3 µM

Return the recorded GI50 value; entry: O=C(/C=C/c1cccc(O)c1)c1cccc(-n2cc(-c3ccc4ccccc4c3)[nH]c2=O)c1 [12b] 4.13 µM

Note GI50 for the compound shown: "O=C(/C=C/c1cccc(O)c1)c1cccc(-n2cc(-c3ccc(Cl)cc3)[nH]c2=O)c1" 4.07 µM

---
Give GI50 for the following compound: "COc1cc(/C=C/C(=O)c2cccc(-n3cc(-c4ccccc4)[nH]c3=O)c2)cc(OC)c1OC" 1.52 µM

* * *

# Lookup of reported GI50 keyed by entry
- Test system: SNB-75 (CNS)
- Procedure Text: NCI anticancer screen, SRB assay, 48 h
- Format: cell-based, human
- Conditions: Homo sapiens, 48 h exposure, SRB, read-out: GI50
Answer with a number only, understood to be in µM.

Using known records, supply GI50 for O=C(/C=C/c1cccc(O)c1)c1cccc(-n2cc(-c3ccc4ccccc4c3)[nH]c2=O)c1 [12b] 1.88

Provide one value: measured GI50 of "O=C(/C=C/c1cccc(O)c1)c1cccc(-n2cc(-c3ccc(Cl)cc3)[nH]c2=O)c1" 1.46

State its GI50: "COc1ccc(-c2cn(-c3cccc(C(=O)/C=C/c4ccc(O)c(OC)c4)c3)c(=O)[nH]2)cc1" 4.73

Provide measured GI50 value, entry: "COc1cc(/C=C/C(=O)c2cccc(-n3cc(-c4ccc(Cl)cc4)[nH]c3=O)c2)ccc1O" 2.75

New cases:
Look up and report measured GI50 for this entry: "COc1cc(/C=C/C(=O)c2cccc(-n3cc(-c4ccccc4)[nH]c3=O)c2)cc(OC)c1OC" 4.47

Give reported GI50 value for "COc1cc(/C=C/C(=O)c2cccc(-n3cc(-c4cc(OC)c(OC)c(OC)c4)[nH]c3=O)c2)cc(OC)c1OC" 5.13

Check the records and state GI50 for "O=C(/C=C/c1cccc(O)c1)c1cccc(-n2cc(-c3ccccc3)[nH]c2=O)c1" 12.1

Using the record for "COc1cc(/C=C/C(=O)c2cccc(-n3cc(-c4ccccc4)[nH]c3=O)c2)ccc1O" , state its measured GI50. 3.9

* * *

Examples of compounds with documented GI50 follow.
- Test system: NCI-H522 (non-small cell lung)
- Procedure Text: NCI anticancer screen, SRB assay, 48 h
- Format: cell-based, human
- Conditions: Homo sapiens, 48 h exposure, SRB, read-out: GI50
Write the value in nM as a bare number.

Example results:
Look up GI50 of O=C(/C=C/c1cccc(O)c1)c1cccc(-n2cc(-c3ccc4ccccc4c3)[nH]c2=O)c1 [12b] and report it. 1290

State, in one line, measured GI50 of COc1cc(/C=C/C(=O)c2cccc(-n3cc(-c4cc(OC)c(OC)c(OC)c4)[nH]c3=O)c2)cc(OC)c1OC [5d] 1050

New cases:
Please list GI50 recorded for the compound COc1cc(/C=C/C(=O)c2cccc(-n3cc(-c4ccccc4)[nH]c3=O)c2)cc(OC)c1OC [5a] 950
